Protein target, amino acids: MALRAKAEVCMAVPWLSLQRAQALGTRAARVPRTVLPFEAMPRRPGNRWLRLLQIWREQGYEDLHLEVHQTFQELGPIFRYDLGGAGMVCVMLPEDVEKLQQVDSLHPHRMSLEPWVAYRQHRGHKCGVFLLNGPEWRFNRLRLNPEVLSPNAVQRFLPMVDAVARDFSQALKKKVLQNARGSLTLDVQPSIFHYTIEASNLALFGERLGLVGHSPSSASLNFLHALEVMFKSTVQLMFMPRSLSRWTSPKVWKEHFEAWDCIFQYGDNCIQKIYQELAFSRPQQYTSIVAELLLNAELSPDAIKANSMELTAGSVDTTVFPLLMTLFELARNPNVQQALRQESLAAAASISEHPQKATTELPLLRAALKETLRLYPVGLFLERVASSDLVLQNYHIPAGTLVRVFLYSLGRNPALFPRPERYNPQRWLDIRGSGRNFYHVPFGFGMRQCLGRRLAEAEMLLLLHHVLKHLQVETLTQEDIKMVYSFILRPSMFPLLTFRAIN
observed.property: IC50 (µM)

A: O=C(N1CCc2cc(-c3cncc(F)c3)cc(Cl)c21)C(F)(F)F [US9745282, 32]
B: CC(C)C(=O)N1CCc2cc(-c3cncc4ccccc34)ccc21 [US9745282, 30]
C: CC(=O)N1CCc2cc(-c3cnccc3C)cc(F)c21 [US9745282, 15]
D: O=C(N1CCc2cc(-c3cncc(F)c3)cc(F)c21)C(F)(F)F [US9745282, 33]
Task for the reader: place the compounds above in descending order according to recorded IC50. Provide your answer as the labels ordered per the instruction.
B, D, A, C
